# targetSystem: β2 adrenergic receptors (Canis lupus familiaris)
# Construct: Canine lung membranes (10 μg protein/100 ul) were incubated with ^125ICYP; from tissue; host or cells: mongrel dog lung membranes
# Sequence (P54833 whole entry): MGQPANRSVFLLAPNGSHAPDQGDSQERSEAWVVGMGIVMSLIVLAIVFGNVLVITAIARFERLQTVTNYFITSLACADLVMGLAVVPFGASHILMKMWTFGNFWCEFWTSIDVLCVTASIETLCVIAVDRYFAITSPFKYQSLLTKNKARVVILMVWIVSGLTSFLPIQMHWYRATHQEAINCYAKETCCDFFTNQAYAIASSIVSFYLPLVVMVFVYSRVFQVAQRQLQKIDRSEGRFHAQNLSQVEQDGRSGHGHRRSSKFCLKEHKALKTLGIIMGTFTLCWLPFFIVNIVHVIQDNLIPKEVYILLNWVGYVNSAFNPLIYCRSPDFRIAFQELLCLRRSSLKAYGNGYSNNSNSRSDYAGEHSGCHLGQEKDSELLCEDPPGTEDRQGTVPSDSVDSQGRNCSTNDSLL
# experiment: Beta-2 binding, 125iodocyanopindolol (ICYP), canine lung membranes
# Parameters: species or system canine (mongrel dogs)
# particulars: Scatchard Analysis, Run 1
measuredProperty: Kd (pM)

                                   compound  measuredproperty  uom  numericreadout
0  CC(C)(C)NCC(O)COc1cccc2[nH]c(C#N)c(I)c12 (stereo not shown)                Kd   pM             9.9

* * *

# targetSystem: β2 adrenergic receptors (Canis lupus familiaris)
# Construct: Canine lung membranes (10 μg protein/100 ul) were incubated with ^125ICYP; from tissue; host or cells: mongrel dog lung membranes
# experiment: Beta-2 binding, 125iodocyanopindolol (ICYP), canine lung membranes
# Set-up: species or system canine (mongrel dogs)
# particulars: Scatchard Analysis, Summary
# Method: PULMONARY ALPHA-1 AND BETA-2 RECEPTORS: The lungs of mongrel dogs were separated from cartilaginous airways and major blood vessels, weighed, chopped and placed into 10 volumes of ice-cold buffered sucrose (50 mM Tris-HCl pH 7.4, 1 mM EGTA, 0.32M Sucrose). […] Protein concentration was then determined by the Lowry method and the final suspension was adjusted to 10 mg of protein/ml, aliquoted and stored at […]. […] ALPHA-2 BINDING ^125IODOCLONIDINE. […] Each experimental point was determined in triplicate. […]
measuredProperty: Kd (pM)

>>> print(df.to_string())
                                   molecule  numericreadout
0  CC(C)(C)NCC(O)COc1cccc2[nH]c(C#N)c(I)c12 (stereo not shown)             8.9
